Listed below: IC50 at 72 h values for each entry.
experiment: Hit confirmation in dose-response curve in HepG2 cytotoxicity assay, at 72h; format: toxicity, cell-based; design: timepoint 72 hour; details: human, HepG2 cells

- molecule: "Cc1cnccc1NCCNC1CCN(c2ccc(Cl)cc2)CC1"
  IC50 at 72 h: "5.25 µM"
- molecule: "O=C(Nc1cccc2cccnc12)c1ccccn1"
  IC50 at 72 h: "3.47 µM"
- molecule: "COC1CCCC1NC(=O)Nc1ncc(Br)cc1C (stereo unspecified)"
  IC50 at 72 h: "> 10 µM"
- molecule: "Cc1oc(-c2ccn[nH]2)cc1S(=O)(=O)Nc1ccc(F)c(Cl)c1"
  IC50 at 72 h: "> 10 µM"
- molecule: "COc1ccc(C)c2sc(N(CCCn3ccnc3)C(=O)Cc3ccc(F)cc3)nc12"
  IC50 at 72 h: "> 10 µM"
- molecule: "Oc1cc(CC[C@H]2CCCCN2)cc(-c2cnc3ccccc3n2)c1"
  IC50 at 72 h: "> 10 µM"

----------
The entries below are paired with their reported pIC50.
test system: Plasmodium falciparum; assay: Hit confirmation in dose-response curve in NF54 nanoGlo assay, at 72h; assay type: functional, organism-based, Erythrocyte; parameters: timepoint 72 hour; settings: Plasmodium falciparum, NF54, Erythrocyte, 72 h
pIC50: −log10 of the molar value.
property: pIC50

- compound: "CCCOc1cccc2c(NC3CCN(CCOC)CC3)ccnc12"
  recorded.value: 5.75
- compound: "Cc1nn(-c2ccccn2)c(O)c1C(c1ccccc1)c1c(C)nn(-c2ccccn2)c1O"
  recorded.value: 5.99
- compound: "CCc1ccc(-c2cc3n(n2)C[C@@](C)(C(=O)NC2CCCCC2)N(c2cc(C)cc(C)c2)C3=O)cc1"
  recorded.value: 5.64
- compound: "Cc1oc(-c2ccc(C(=O)N3CCN(c4ccccc4)CC3)cc2)nc1CN1CCC(C)CC1"
  recorded.value: 5.67
- compound: "CC(NCC(O)Cn1c(-c2ccccc2)c(-c2ccccc2)c2ccc3ccccc3c21)c1ccccc1 (stereo unspecified)"
  recorded.value: 5.79
- compound: "O=C(Nc1[nH]c(=O)ncc1F)c1cccc2ccccc12"
  recorded.value: 8.21
- compound: "CCc1cc(=O)[nH]c(-n2nc(C3CC3)cc2NC(=O)C2CCCCC2)n1"
  recorded.value: 5.90
- compound: "CCNc1ccnc(NCc2nc(-c3cccc(F)c3)c(-c3ccccn3)[nH]2)n1"
  recorded.value: 5.50
- compound: "O=C1NCCCOc2cccc(c2)[C@H]2c3ccc(cc3CCN2C(=O)CCN2CCOCC2)Oc2ccc(O)c1c2"
  recorded.value: 5.65
- compound: "O=c1nc2n(nc1-c1ccccc1)C1(CCC1)Nc1ccccc1-2"
  recorded.value: 6.12
- compound: "CCOC(=O)c1cc(F)cc(S(=O)(=O)Nc2ccnc3ncnn23)c1"
  recorded.value: 5.23
- compound: "Cn1cncc1CC(=O)Nc1ccnc(NC(=O)OC(C)(C)C)c1"
  recorded.value: 5.91
- compound: "Cc1oc(-c2ccn[nH]2)cc1S(=O)(=O)Nc1ccc(F)c(Cl)c1"
  recorded.value: 5.27
- compound: "COc1cc2c(cc1OC)[C@@H](NC(=O)c1cnc(C3(C)OCCO3)s1)CCCC2"
  recorded.value: 5.69
- compound: "CC(=O)Nc1ccc(-c2cn3c4ccccc4ccc3[n+]2C)cc1"
  recorded.value: 6.31
- compound: "O[C@H]1CNCC[C@@H]1Nc1cc(-c2ccccc2)nc2ccccc12"
  recorded.value: 5.70
- compound: "O=S(=O)(c1ccc(F)c(Cl)c1)N1CC[C@H](Oc2ccncc2Cl)C1"
  recorded.value: 5.73
- compound: "CN1CC[C@]2(CCN(c3ccnc4ccsc34)C2)C1"
  recorded.value: 6.26
- compound: "Cc1cnccc1NCCNCc1cccc(O)c1Cl"
  recorded.value: 5.95
- compound: "COc1ccc(Nc2nnc(-c3ccc(NC(=O)C(=O)NCCCn4ccnc4)cc3)s2)cc1"
  recorded.value: 5.89
- compound: "O=S(=O)(NC12CCCC1CNC2)c1onc(C2CC2)c1Cl (stereo unspecified)"
  recorded.value: 6.05

----------
test: Re-testing in dose-response curve in HepG2 cytotoxicity assay, at 72h; format: toxicity, cell-based; design: timepoint 72 hour; conditions: human, HepG2 cells

- compound: "C[C@H]1CCN(c2nc(-c3ccccn3)nc3c2CCC3)C1"
  display.unit: "µM"
  bound.type: "="
  IC50 at 72 h: 4.75
- compound: "CN1CCCN(c2ccc(NC(=O)c3nn(-c4ccccc4)c(=O)c4ccccc34)cc2F)CC1"
  display.unit: "µM"
  bound.type: "="
  IC50 at 72 h: 7.35
- compound: "O=C(CN1CCC[C@H]1C1CCCC1)NCC1CCCCC1"
  display.unit: "µM"
  bound.type: ">"
  IC50 at 72 h: 25
- compound: "COc1ccc(C(=O)N2c3ncnn3C(c3ccccc3)CC2c2ccc(C)cc2)cc1OC (stereo not given)"
  display.unit: "µM"
  bound.type: ">"
  IC50 at 72 h: 25
- compound: "COc1ccc([C@@H]2C=C(c3ccc(Cl)cc3)N=C3NC(NC(=O)c4ccccc4OC)=NN32)cc1"
  display.unit: "µM"
  bound.type: ">"
  IC50 at 72 h: 25

----------
IC50 at 72 h overview
test: Hit confirmation in dose-response curve in HepG2 cytotoxicity assay, at 72h; type: toxicity, cell-based; design: timepoint 72 hour; details: human, HepG2 cells

- smiles.representation: "CCc1cccc(NC(=O)N2CCN(C3=CC4=NC[C@H](C)N4C=N3)CC2)c1"
  IC50 at 72 h: "> 10 µM"
- smiles.representation: "COc1cc([C@H](CC(=O)NC2CCN(Cc3ccccc3)CC2)N2Cc3ccccc3C2=O)cc(OC)c1OC"
  IC50 at 72 h: "> 10 µM"
- smiles.representation: "Cc1ccc(Nc2ccc(N3CCNCC3)nn2)nc1"
  IC50 at 72 h: "> 10 µM"
- smiles.representation: "CC(C)CCn1nnnc1[C@]1(N(C)C)CCCN(C(=O)c2cccn2C)C1"
  IC50 at 72 h: "> 10 µM"
- smiles.representation: "COc1ccccc1C(=O)NC1=NN2C(=NC(c3ccc(Cl)cc3)=C[C@H]2c2ccc(Cl)cc2)N1"
  IC50 at 72 h: "> 10 µM"
- smiles.representation: "COc1ccc(Nc2nnc(-c3ccc(NC(=O)C(=O)NCCCn4ccnc4)cc3)s2)cc1"
  IC50 at 72 h: "> 10 µM"
- smiles.representation: "CC[C@@]1(C)CCCN(C(=O)Cc2c(C)noc2Cl)C1"
  IC50 at 72 h: "> 10 µM"
- smiles.representation: "O=C(N[C@@H](CN1CCCC1)c1ccccc1)N1CCC(c2ccn[nH]2)CC1"
  IC50 at 72 h: "> 10 µM"
- smiles.representation: "Cc1cccc(-c2nc(C[N+]3(Cc4nc(-c5cccc(C)c5)oc4C)CCCC3)c(C)o2)c1"
  IC50 at 72 h: "> 10 µM"
- smiles.representation: "N#Cc1cc(S(=O)(=O)NCCN(C2CC2)S(=O)(=O)c2ccc(Cl)c(C#N)c2)ccc1Cl"
  IC50 at 72 h: "> 10 µM"

----------
Listing: log10 of IC50 of selected compounds
tested on: Plasmodium falciparum; test: Hit confirmation in dose-response curve in NF54 pLDH assay, at 72h; assay type: functional, organism-based; set-up: timepoint 72 hour; settings: NF54, Erythrocyte
property: log10 of IC50 (log10 of the value in µM)

- smiles.representation: "CC[N+](C)(CC)CCOc1cc(C)c2ccccc2n1"
  recorded.value: 0.67
- smiles.representation: "COc1cccc(CC(=O)N2CCc3nc(N4CCC(C)CC4)nc(Oc4ccccc4OC)c3C2)c1"
  recorded.value: 1.00
- smiles.representation: "CC1=CC(=[N+](CCO)CCO)C=C/C1=C(\\c1ccc(N(CCO)CCO)cc1C)c1ccccc1Cl"
  recorded.value: -0.78
- smiles.representation: "Cc1ccc(N2C(=O)c3ccccc3[C@@H]2c2c[nH]c3ccccc23)cc1"
  recorded.value: 0.87
- smiles.representation: "O=C(CCCc1ccccc1)Nc1cc(C2CC2)nn1-c1nc(-c2ccccc2)cc(=O)[nH]1"
  recorded.value: 0.78
- smiles.representation: "CC[n+]1ccc(-c2ncc(-c3ccc(C(C)(C)C)cc3)o2)cc1"
  recorded.value: -0.74
- smiles.representation: "N[C@H]1C[C@@H](c2cc(N3CCN(C4CCCCC4)CC3)nc(N3CCCC3)n2)C1"
  recorded.value: 0.62
- smiles.representation: "C[C@@H](CN)N(C)c1ccnc2cc(Br)cnc12"
  recorded.value: -0.25
- smiles.representation: "Nc1nc2c(s1)CN(CCc1ccccc1)CC2"
  recorded.value: 0.84
